- Test Summary: Plasma protein binding in human
- Format: ADME, cell-free
- Condition Context: read-out: PPB (converted)
Property Measured: fraction unbound
Would you mind answering with just the numeric figure?

(Q) Indicate its recorded fraction unbound; the molecule in question is "C[C@H]1CC[C@H](Cn2c(N3CCO[C@@H]4CCC[C@H]43)nc3cc(-c4noc(=O)[nH]4)nc(-c4cncc(Cl)c4)c32)CC1"
(A) 0.008

---

As shown below, each of these compounds has a reported logD value.
- Test Summary: Lipophilicity, logD of the compound at pH 7 by RP-HPLC analysis
- Type: physicochemical
- Condition Context: buffer
Would you mind answering with just the numeric figure?

The examples below pair each entry with its known result.
# Compound, Property Measured, Observed
records = [
    ("C[C@H]1CC[C@H](Cn2c(N3CCC[C@H]3CF)nc3cc(-c4noc(=O)[nH]4)nc(-c4cncc(Cl)c4)c32)CC1", "logD", 2.42),
    ("CCOC(c1nc2cc(-c3noc(=O)[nH]3)nc(-c3cncc(Cl)c3)c2n1C[C@H]1CC[C@H](C)CC1)C1CC1 (stereo not given in full)", "logD", 2.34),
    ("Cc1cccc(-c2nc3nc(C(=O)O)nc(NCC4CC4)c3n2CC2CCCCC2)c1", "logD", 3.7),
]

(Q) Indicate its recorded logD; the compound in question is "Cc1cncc(-c2nc(-c3noc(=O)[nH]3)nc3nc(N4CCOC[C@H]4c4ccccc4)n(C[C@H]4CC[C@H](C)CC4)c23)c1"
(A) 2.17

(Q) Indicate its recorded logD; the compound in question is "C[C@H]1CC[C@H](Cn2c(N3CCO[C@@H]4CCC[C@H]43)nc3cc(-c4noc(=O)[nH]4)nc(-c4cncc(Cl)c4)c32)CC1"
(A) 2.46

(Q) Indicate its recorded logD; the compound in question is "C[C@@H]1COC[C@@H](C)N1c1nc2cc(-c3noc(=O)[nH]3)nc(-c3cncc(Cl)c3)c2n1C[C@H]1CC[C@H](C)CC1"
(A) 2.32

(Q) Indicate its recorded logD; the compound in question is "CC(C)c1cccc(-c2nc3nc(C(=O)O)nc(N[C@H](C)C4CCC4)c3n2Cc2ccc(C(F)(F)F)cc2)c1"
(A) 2.86

---

- Test Summary: Intrinsic clearance in human hepatocytes
- Format: ADME, cell-based, Hepatocyte
- Condition Context: read-out: CLH
Property Measured: CLint scaled (mL/min/kg)
Note: unit mL/min/kg is implicit; provide only the numeric part.

(Q) Indicate its recorded CLint scaled; the compound in question is "C[C@H]1CC[C@H](Cn2c(N3CCO[C@@H]4CCC[C@H]43)nc3cc(-c4noc(=O)[nH]4)nc(-c4cncc(Cl)c4)c32)CC1"
(A) 58

---

- Test System: Cytochrome P450 2C8 (Homo sapiens, UniProt P10632)
- Sequence (P10632 whole entry): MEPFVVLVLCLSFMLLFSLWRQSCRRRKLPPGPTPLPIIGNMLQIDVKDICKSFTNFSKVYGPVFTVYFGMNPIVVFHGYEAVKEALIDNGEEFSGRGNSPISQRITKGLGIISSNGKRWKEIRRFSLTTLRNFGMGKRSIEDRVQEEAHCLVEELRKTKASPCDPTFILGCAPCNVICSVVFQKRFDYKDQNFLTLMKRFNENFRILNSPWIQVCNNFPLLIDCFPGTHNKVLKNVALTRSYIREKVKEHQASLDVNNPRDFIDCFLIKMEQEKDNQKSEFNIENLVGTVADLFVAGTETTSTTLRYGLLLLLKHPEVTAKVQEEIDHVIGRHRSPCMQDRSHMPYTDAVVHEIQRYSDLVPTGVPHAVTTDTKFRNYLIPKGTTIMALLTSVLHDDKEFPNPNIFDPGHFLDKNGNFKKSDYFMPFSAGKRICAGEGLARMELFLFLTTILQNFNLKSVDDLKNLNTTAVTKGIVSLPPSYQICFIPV
Property Measured: IC50 (nM)
Note: unit nM is implicit; provide only the numeric part.

(Q) Indicate its recorded IC50; the compound in question is "C[C@H]1CC[C@H](Cn2c(N3CCO[C@@H]4CCC[C@H]43)nc3cc(-c4noc(=O)[nH]4)nc(-c4cncc(Cl)c4)c32)CC1"
(A) 800

---

As shown below, each of these molecules has a reported MRT value.
- Test Summary: Mean residence time in rat
- Type: ADME
- Condition Context: in vivo
Note: unit min is implicit; provide only the numeric part.

The examples below pair each entry with its known result.
# Molecule, Readout Unit, MRT
records = [
    ("COCC(C)c1nc2cc(-c3noc(=O)[nH]3)nc(-c3cncc(Cl)c3)c2n1[C@H](C)[C@H]1CC[C@H](C)CC1 (stereo partly drawn)", "min", 24),
    ("C[C@H]1CC[C@H](Cn2c(N3CCOC[C@H]3c3ccccc3)nc3cc(-c4noc(=O)[nH]4)nc(-c4cncc(Cl)c4)c32)CC1", "min", 24),
    ("C[C@H]1CC[C@H](Cn2c(N3CCC[C@H]3CF)nc3cc(-c4noc(=O)[nH]4)nc(-c4cncc(Cl)c4)c32)CC1", "min", 15),
    ("CCO[C@@H](c1nc2cc(-c3noc(=O)[nH]3)nc(-c3cncc(Cl)c3)c2n1[C@H](C)[C@H]1CC[C@H](C)CC1)C1CC1", "min", 30),
    ("C[C@H]1CC[C@H](Cn2c(N3CCC[C@H]3C(F)(F)F)nc3cc(-c4noc(=O)[nH]4)nc(-c4cncc(Cl)c4)c32)CC1", "min", 21),
]

(Q) Indicate its recorded MRT; the molecule in question is "C[C@H]1CC[C@H](Cn2c(N3CCO[C@@H]4CCC[C@H]43)nc3cc(-c4noc(=O)[nH]4)nc(-c4cncc(Cl)c4)c32)CC1"
(A) 36

(Q) Indicate its recorded MRT; the molecule in question is "C[C@@H](Nc1nc(-c2noc(=O)[nH]2)nc2nc(N3CCOC[C@H]3c3ccccc3)n(C[C@H]3CC[C@H](C)CC3)c12)C1CCC1"
(A) 43.8

(Q) Indicate its recorded MRT; the molecule in question is "C[C@@H]1COC[C@@H](C)N1c1nc2cc(-c3noc(=O)[nH]3)nc(-c3cncc(Cl)c3)c2n1C[C@H]1CC[C@H](C)CC1"
(A) 18

---

- Test Summary: Mean residence time in dog
- Assay type: ADME, Canis lupus familiaris
- Condition Context: in vivo
Assign criterion met to entries whose MRT meets or exceeds 3 h; assign criterion not met to the rest.

Below are worked cases with known answers.
# Molecule, Assigned Label
records = [
    ("C[C@H]1CC[C@H](Cn2c(N3CCO[C@@H]4CCC[C@H]43)nc3cc(-c4noc(=O)[nH]4)nc(-c4cncc(Cl)c4)c32)CC1", "criterion met"),
    ("CCO[C@@H](c1nc2cc(-c3noc(=O)[nH]3)nc(-c3cncc(Cl)c3)c2n1[C@H](C)[C@H]1CC[C@H](C)CC1)C1CC1", "criterion met"),
    ("CCOC(c1nc2cc(-c3noc(=O)[nH]3)nc(-c3cncc(Cl)c3)c2n1C[C@H]1CC[C@H](C)CC1)C1CC1 (some centres undefined)", "criterion not met"),
    ("C[C@@H]1COC[C@@H](C)N1c1nc2cc(-c3noc(=O)[nH]3)nc(-c3cncc(Cl)c3)c2n1C[C@H]1CC[C@H](C)CC1", "criterion met"),
    ("C[C@H]1CC[C@H](Cn2c(N3CCC[C@H]3CF)nc3cc(-c4noc(=O)[nH]4)nc(-c4cncc(Cl)c4)c32)CC1", "criterion not met"),
    ("COCC(C)c1nc2cc(-c3noc(=O)[nH]3)nc(-c3cncc(Cl)c3)c2n1C[C@H]1CC[C@H](C)CC1 (some centres undefined)", "criterion not met"),
    ("C[C@H]1CC[C@H](Cn2c(N3CCOC[C@H]3c3ccccc3)nc3cc(-c4noc(=O)[nH]4)nc(-c4cncc(Cl)c4)c32)CC1", "criterion not met"),
    ("C[C@H]1CC[C@H](Cn2c(N3CCC[C@H]3C(F)(F)F)nc3cc(-c4noc(=O)[nH]4)nc(-c4cncc(Cl)c4)c32)CC1", "criterion not met"),
]

(Q) Does COCC(C)c1nc2cc(-c3noc(=O)[nH]3)nc(-c3cncc(Cl)c3)c2n1[C@H](C)[C@H]1CC[C@H](C)CC1 (some centres undefined) have a reported MRT of at least 3 h?
(A) criterion met

---

- Test Summary: Bioavailability in rat
- Type: ADME, organism-based
- Condition Context: in vivo
Assign 1 (yes) to entries whose bioavailability meets or exceeds 20%; assign 0 (no) to the rest.

# Molecule, Assigned Label
rows = [
    ("C[C@H]1CC[C@H](Cn2c(N3CCO[C@@H]4CCC[C@H]43)nc3cc(-c4noc(=O)[nH]4)nc(-c4cncc(Cl)c4)c32)CC1", "1 (yes)"),
    ("C[C@@H]1COC[C@@H](C)N1c1nc2cc(-c3noc(=O)[nH]3)nc(-c3cncc(Cl)c3)c2n1C[C@H]1CC[C@H](C)CC1", "0 (no)"),
    ("CCO[C@@H](c1nc2cc(-c3noc(=O)[nH]3)nc(-c3cncc(Cl)c3)c2n1[C@H](C)[C@H]1CC[C@H](C)CC1)C1CC1", "1 (yes)"),
    ("COCC(C)c1nc2cc(-c3noc(=O)[nH]3)nc(-c3cncc(Cl)c3)c2n1[C@H](C)[C@H]1CC[C@H](C)CC1 (some centres not stated)", "1 (yes)"),
    ("C[C@H]1CC[C@H](Cn2c(N3CCC[C@H]3C(F)(F)F)nc3cc(-c4noc(=O)[nH]4)nc(-c4cncc(Cl)c4)c32)CC1", "0 (no)"),
]

(Q) Does "C[C@H]1CC[C@H](Cn2c(N3CCC[C@H]3CF)nc3cc(-c4noc(=O)[nH]4)nc(-c4cncc(Cl)c4)c32)CC1" have a reported bioavailability of at least 20%?
(A) 0 (no)

(Q) Does "C[C@H]1CC[C@H](Cn2c(N3CCOC[C@H]3c3ccccc3)nc3cc(-c4noc(=O)[nH]4)nc(-c4cncc(Cl)c4)c32)CC1" have a reported bioavailability of at least 20%?
(A) 0 (no)
